Sourced from ChEMBL document CHEMBL1671814

- assayOverview: Metabolic stability in human liver microsomes assessed as compound remaining at 1 uM after 20 mins relative to basal level
- Type: ADME, Microsome
- statedConditions: read-out: Stability
reportedMetric: remaining at 20 min, 1 µM (%)
Field format: number, assumed %, no unit text.

IN: Tell me remaining at 20 min, 1 µM reported for "CCc1nc(CC(C)(C)C)c(CN)c(-c2ccc(C)cc2)c1CC(=O)O.O"
OUT: 100

====

Listed here are molecules together with their documented pIC50.
- systemUnderTest: Dipeptidyl peptidase 8 (Homo sapiens, UniProt Q6V1X1)
- Sequence (Q6V1X1 whole entry): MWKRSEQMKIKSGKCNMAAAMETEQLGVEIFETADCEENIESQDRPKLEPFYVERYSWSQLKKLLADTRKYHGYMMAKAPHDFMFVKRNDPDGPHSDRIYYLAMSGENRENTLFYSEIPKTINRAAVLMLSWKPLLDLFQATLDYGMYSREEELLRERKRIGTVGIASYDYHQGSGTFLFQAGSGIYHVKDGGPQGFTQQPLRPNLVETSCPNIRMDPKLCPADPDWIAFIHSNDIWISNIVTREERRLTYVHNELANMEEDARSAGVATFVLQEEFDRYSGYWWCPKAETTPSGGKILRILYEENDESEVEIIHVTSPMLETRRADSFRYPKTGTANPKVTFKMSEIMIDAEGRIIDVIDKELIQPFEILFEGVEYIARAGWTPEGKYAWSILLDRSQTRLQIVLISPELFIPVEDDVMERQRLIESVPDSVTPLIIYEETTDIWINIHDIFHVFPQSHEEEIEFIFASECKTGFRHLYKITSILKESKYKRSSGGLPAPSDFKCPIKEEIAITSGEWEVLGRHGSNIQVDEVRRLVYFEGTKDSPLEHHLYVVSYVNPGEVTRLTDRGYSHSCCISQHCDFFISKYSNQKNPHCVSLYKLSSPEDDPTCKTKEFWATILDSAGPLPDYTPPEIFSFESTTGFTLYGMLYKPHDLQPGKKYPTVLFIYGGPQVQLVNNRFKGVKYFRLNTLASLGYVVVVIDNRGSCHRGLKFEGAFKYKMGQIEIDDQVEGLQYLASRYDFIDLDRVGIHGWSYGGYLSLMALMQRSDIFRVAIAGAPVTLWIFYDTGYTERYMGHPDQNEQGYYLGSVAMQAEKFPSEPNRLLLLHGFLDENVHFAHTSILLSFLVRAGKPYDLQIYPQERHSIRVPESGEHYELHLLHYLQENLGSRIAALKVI
- assayOverview: Inhibition of FLAG-tagged human DPP8 expressed in human 293F cells after 90 mins
pIC50: −log10 of the molar value.

Some solved entries appear below for comparison.
IN: Tell me pIC50 reported for "Cc1ccc(-c2c(CCC(=O)O)c(C)nc(CC(C)C)c2CN)cc1"
OUT: < 4.52

IN: Tell me pIC50 reported for "Cc1ccc(-c2c(CC(=O)O)c(C)nc(CC(C)(C)C)c2CN)cc1"
OUT: < 4.00

IN: Tell me pIC50 reported for "Cc1ccc(-c2c(CC(=O)O)c(C)nc(CC(C)C)c2CN)cc1"
OUT: < 4.52

More entries:
IN: Tell me pIC50 reported for "CCc1nc(CC(C)(C)C)c(CN)c(-c2ccc(C)cc2)c1CC(=O)O.O"
OUT: < 4.00
